Each record here notes measured IC50.
biological target: HMG-CoA reductase (Rattus norvegicus, UniProt P51639); construct: solubilized enzyme preparations from liver microsomes of rats; rats induced with cholestyramine (Cuemid); assay: HMG-CoA reductase activity in enzyme preparations; settings: solubilized enzyme from rat liver microsomes, 14C-HMG-CoA substrate; read-out: IC50, molar concentration of the compound required for 50% inhibition of HMG-CoA reductase
Sequence (P51639 whole entry): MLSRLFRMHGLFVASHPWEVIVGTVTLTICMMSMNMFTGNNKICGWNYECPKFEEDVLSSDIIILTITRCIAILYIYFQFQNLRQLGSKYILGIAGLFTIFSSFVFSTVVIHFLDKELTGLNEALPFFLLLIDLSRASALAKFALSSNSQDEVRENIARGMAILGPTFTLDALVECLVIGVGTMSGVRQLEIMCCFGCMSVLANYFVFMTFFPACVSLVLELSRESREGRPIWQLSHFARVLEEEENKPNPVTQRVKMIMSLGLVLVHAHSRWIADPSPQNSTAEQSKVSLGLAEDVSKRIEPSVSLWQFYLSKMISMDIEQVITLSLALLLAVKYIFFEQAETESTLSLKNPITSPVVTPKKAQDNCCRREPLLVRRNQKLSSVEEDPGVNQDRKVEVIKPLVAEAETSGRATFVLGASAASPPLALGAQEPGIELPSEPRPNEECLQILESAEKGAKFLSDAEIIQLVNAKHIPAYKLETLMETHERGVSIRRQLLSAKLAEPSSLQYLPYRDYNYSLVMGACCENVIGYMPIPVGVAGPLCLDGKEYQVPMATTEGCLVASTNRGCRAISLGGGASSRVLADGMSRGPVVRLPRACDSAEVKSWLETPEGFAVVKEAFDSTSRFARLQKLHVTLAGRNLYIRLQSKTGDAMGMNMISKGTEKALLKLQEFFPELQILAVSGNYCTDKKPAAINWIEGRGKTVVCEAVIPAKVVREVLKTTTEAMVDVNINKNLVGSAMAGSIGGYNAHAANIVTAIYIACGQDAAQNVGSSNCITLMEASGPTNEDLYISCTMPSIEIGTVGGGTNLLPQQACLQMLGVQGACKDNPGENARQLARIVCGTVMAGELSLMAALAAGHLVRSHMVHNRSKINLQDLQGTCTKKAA
// note: answer is a bare numeric in nM

>  <Molecule>
CC(C)c1nnc(-c2ccc(F)cc2)c(-c2ccc(F)cc2)c1/C=C/[C@@H](O)C[C@@H](O)CC(=O)O (relative stereo) [Example 13a]

>  <Test Value>
1.7

$$$$

Exercise: Param item = CC(C)c1nnc(-c2ccc(F)cc2)c(-c2ccc(F)cc2)c1/C=C/[C@@H](O)C[C@@H](O)CC(=O)O [Example 19a] ; retrieve measured IC50.
Solution: 1.3
